tested-system: T1, GFP-9S library array, motif 4 ND N98D;D124Y (synthetic construct, N98D;D124Y)
T1 chain: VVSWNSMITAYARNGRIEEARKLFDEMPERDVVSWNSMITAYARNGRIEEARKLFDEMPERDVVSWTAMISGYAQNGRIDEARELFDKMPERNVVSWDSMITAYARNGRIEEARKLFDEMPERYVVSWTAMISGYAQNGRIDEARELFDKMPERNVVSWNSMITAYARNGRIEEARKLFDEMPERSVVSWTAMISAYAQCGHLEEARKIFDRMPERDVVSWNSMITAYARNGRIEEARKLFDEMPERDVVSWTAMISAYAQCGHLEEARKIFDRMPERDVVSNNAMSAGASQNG
protocol-notes: high-throughput RNA pulldown from lysate on Ni-NTA beads; HRP: 50 mM Tris pH 8, 150 mM NaCl, 1 mM beta-mercaptoethanol, 50 ug/ml BSA, 3 ug/ml yeast RNA, 0.5% heparin; ITC and FP: Tris pH 8, 200 mM KCl, 5% glycerol; MST: 50 mM Tris pH 8, 200 mM NaCl, 1 mM DTT, BSA, heparin, 0.05% Tween 20
condition-info: tags: N-terminal His-eGFP; label: 5' IRDye 800CW
binders and their reported Kd
Just the number in nM, nothing appended.

# binder, measurement-kind, measured-value
records = [
    ("AUUAUACGUGA (ssRNA) [IR-rpoA-U]", "Kd", 266),
]

Consider the record given below.
// Kd lookup, key: AUUAAACGUGA (ssRNA) [IR-rpoA-A] 1180

These entries and their values trace back to paper PMC8809517.
